Data provenance is PubChem BioAssay AID1851.

target: Cytochrome P450 2C19 (Homo sapiens) (UniProt P33261); experiment: Cytochrome panel assay with activity outcomes; conditions: recombinant CYP, pro-luciferin dealkylation, luminescence, p450-cyp2c19; series mostly up to 57.1 µM
Sequence (P33261 whole entry, looked up): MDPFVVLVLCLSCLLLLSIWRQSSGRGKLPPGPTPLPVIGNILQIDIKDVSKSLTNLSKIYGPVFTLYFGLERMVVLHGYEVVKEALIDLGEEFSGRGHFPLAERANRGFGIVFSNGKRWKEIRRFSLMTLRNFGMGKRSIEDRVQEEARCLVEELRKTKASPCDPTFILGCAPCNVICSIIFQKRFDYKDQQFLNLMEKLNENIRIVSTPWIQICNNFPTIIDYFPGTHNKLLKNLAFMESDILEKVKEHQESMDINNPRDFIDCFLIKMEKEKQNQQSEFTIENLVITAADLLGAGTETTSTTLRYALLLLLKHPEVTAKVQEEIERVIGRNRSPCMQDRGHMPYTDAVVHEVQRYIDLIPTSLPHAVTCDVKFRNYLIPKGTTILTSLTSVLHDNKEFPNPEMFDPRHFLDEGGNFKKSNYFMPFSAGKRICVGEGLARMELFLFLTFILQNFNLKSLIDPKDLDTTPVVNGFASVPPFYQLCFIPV
The campaign covered roughly 16,000 compounds. About 5,800 (36%) were called active. Inconclusive results (about 23%) are left out. Calls follow the shape of the dose curve; as a rule, active = well fitted curve in the direction sought with a large enough effect; inconclusive = small, poorly fitted or top-dose-only effect, or effect the other way; inactive = no such curve, though single readings can be large or run the other way. The list shows a part of the results. Peptide text beside a SMILES is read from it.
Return exactly one item of active, inactive

Below are worked cases with known answers.
Just curious, what result did CC[N+](CC)(CC)CC(=O)Nc1c(C)cccc1C get here?
inactive

Could you check what this test reported for CC(=O)N[C@@H](CC(=O)O)C(=O)N[C@@H](CCC(=O)O)C(=O)O (Ac-Asp-Glu-OH) ?
inactive

Kindly provide the recorded test outcome for the following compound: c1ccc2cc(C3=NCCN3)ncc2c1
inactive

***
Which outcome was assigned to N#Cc1c(SCC(N)=O)nsc1SCc1ccccc1Cl in this test?
active

Name the outcome recorded for Cc1cc(N(CN2CCCC2=O)C(=O)c2ccc(F)cc2)no1 in the assay.
inactive

What call does the record list for COc1ccccc1NS(=O)(=O)c1cccc(C(=O)OCC(=O)Nc2cc(C)on2)c1 ?
active
